Data provenance: patent US10710979B2

As shown below, each of these compounds has a reported pIC50 value.
Test system: human melanoma cell A375
Assay: Effect of compounds on proliferation of tumor cells (MTT), A375
Assay type: cell-based
Conditions: A-375, 72 hours
Note on units: pIC50 is unitless, being -log10 of a concentration expressed in mol/L.

COMPOUND: C=CC(=O)Nc1cccc(Nc2nc(Nc3ccc(N4CCN(S(=O)(=O)NC)CC4)nc3OC)ncc2C(F)(F)F)c1
pIC50: 4.90
//
COMPOUND: C=CC(=O)Nc1cccc(Nc2nc(Nc3ccc(NC4CCN(C)C4)nc3OC)ncc2C(F)(F)F)c1 (centres unmarked)
pIC50: 4.91
//
COMPOUND: C=CC(=O)Nc1cccc(Nc2nc(Nc3ccc(N4CCN(S(=O)(=O)N(C)C)CC4)nc3OC)ncc2C(F)(F)F)c1
pIC50: 5.36
//
COMPOUND: C=CC(=O)Nc1cccc(Nc2nc(Nc3ccc(N4CCN(C(=O)OC(C)(C)C)CC4)nc3OC)ncc2C(F)(F)F)c1
pIC50: 5.31
//
COMPOUND: C=CC(=O)Nc1cccc(Nc2nc(Nc3ccc(N4CCN(C(=O)C5CC5)CC4)nc3OC)ncc2C(F)(F)F)c1
pIC50: 5.34

Answer with the recorded pIC50 of C=CC(=O)Nc1cccc(Nc2nc(Nc3ccc(N(C)C4CCN(C(C)=O)C4)nc3OC)ncc2C(F)(F)F)c1 (centres unmarked) only.
5.38

Output pIC50 of C=CC(=O)Nc1cccc(Nc2nc(Nc3cnc(N4CCN(C(=O)C5COC5)CC4)nc3OC)ncc2C(F)(F)F)c1
4.72

Indicate its recorded pIC50; the compound in question is C=CC(=O)Nc1cccc(Nc2nc(Nc3ccc(N(C)C4CCN(CCF)C4)nc3OC)ncc2C(F)(F)F)c1 (centres unmarked)
5.23
